Source listed as patent EP4745139A1.

Listed here: items and their measured pIC50.
# System: RSV strain A2
# experiment-summary: Antiviral detection test against RSV strain A2 based on ELISA method (Hep-2 cells)
# Format: cell-based, Respiratory Syncytial Virus
# condition-set: human respiratory syncytial virus; RSV A2 virus strain, Hep-2 cells, ELISA OD450
pIC50: −log10 of the molar value.

// below: answered compounds
| compound | pIC50 |
| --- | --- |
| Cc1ccc2nc(N3CCS(=O)(=NC4CC4)c4ccccc4C3)nc(N[C@H]3CNC[C@@H]3F)c2c1 (stereo partly drawn) | > 8.00 |
| CNC(=O)N=S1(=O)CCN(c2nc(NCC3(N)COC3)c3cc(C)ccc3n2)Cc2ccccc21 (stereo not drawn) | > 8.00 |
| Cc1ccc2nc(N3CCS(=O)(=NCC4CCOC4)c4ccccc4C3)nc(N3CC[C@H](N)C3)c2c1 (stereo partly drawn) | > 8.00 |
| Cc1ccc2nc(N3CCS(=O)(=NCCCO)c4ccccc4C3)nc(N3CC[C@H](N)C3)c2c1 (stereo partly drawn) | > 8.00 |
| CCN=S1(=O)CCN(c2nc(NCC3(N)COC3)c3cc(C)ccc3n2)Cc2ccccc21 (stereo not drawn) | > 8.00 |

Lookup: Sample Cc1ccc2nc(N3CCS(=O)(=NCC4CCCO4)c4ccccc4C3)nc(N3CC[C@H](N)C3)c2c1 (stereo partly drawn) — what was its pIC50?
Found: > 8.00

----------
# experiment-summary: Pharmacokinetic experiment in mice after intragastric administration (plasma and lung tissue, LC/MS/MS)
# Assay type: in vivo
# condition-set: ICR, mouse, lung, oral, intragastric administration at 20 mg/kg, read-out: Lung tissue drug concentration at 6 h
readout-name: concentration at 6 h (ng/g)
Give the number; ng/g is assumed, so skip it.

// below: answered molecules
| molecule | value-observed |
| --- | --- |
| Cc1ccc2nc(N3CCS(=O)(=NC4CC4)c4ccccc4C3)nc(N3CC4C(N)C4C3)c2c1 (centres unmarked) | 25300 |
| Cc1ccc2nc(N3CCS(=O)(=O)c4ccccc4C3)nc(NCC3(N)COC3)c2c1 [AK0529, reference compound] | 1210 |
| Cc1ccc2nc(N3CCS(=O)(=NC4CC4)c4ccccc4C3)nc(N3CC(CN)C3)c2c1 (centres unmarked) | 5920 |

Lookup: Sample Cc1ccc2nc(N3CCS(=O)(=NC4CC4)c4ccccc4C3)nc(N3CC(N)C3)c2c1 (centres unmarked) — what was its concentration at 6 h?
Found: 28800

Lookup: # iterate: Cc1ccc2nc(N3CCS(=O)(=NC4CC4)c4ccccc4C3)nc(N[C@H]3CNC[C@@H]3F)c2c1 (some centres unmarked)
Found: 15400

Lookup: # iterate: COCC(C)N=S1(=O)CCN(c2nc(N3CC[C@H](N)C3)c3cc(C)ccc3n2)Cc2ccccc21 (some centres unmarked)
Found: 6010

----------
# Test system: RSV strain A2
# experiment-summary: Antiviral detection test against RSV strain A2 based on ELISA method (Hep-2 cells)
# Assay type: cell-based, Respiratory Syncytial Virus
# condition-set: human respiratory syncytial virus; RSV A2 virus strain, Hep-2 cells, ELISA OD450
readout-name: IC50

| compound | value-observed |
| --- | --- |
| N[C@H]1CCN(c2nc(N3CCS(=O)(=NCCCO)c4ccccc4C3)nc3ccc(C(F)F)cc23)C1 (stereo partly drawn) [Example 4-66] | < 10 nM |

Lookup: Sample COCC(C)N=S1(=O)CCN(c2nc(N3CC[C@H](N)C3)c3cc(C)ccc3n2)Cc2ccccc21 (stereo partly drawn) [Example 4-69] — what was its IC50?
Found: < 10 nM

Lookup: # iterate: N[C@H]1CCN(c2nc(N3CCS(=O)(=NC4CC4)c4ccccc4C3)nc3ccc(C(F)F)cc23)C1 (stereo partly drawn) [Example 4-62]
Found: < 10 nM

Lookup: # iterate: Cc1ccc2nc(N3CCS(=O)(=NC4CC4)c4ccccc4C3)nc(N[C@H]3C[C@@H](N)C3)c2c1 (stereo partly drawn) [Example 4-13]
Found: < 10 nM
